test: soluble on expression in E. coli; label from the status in PepcDB or PDB records
EXPERIMENTAL READOUT: soluble on expression in E. coli

CONSTRUCT SEQUENCE	ENDPOINT RESULT
RMMEGAIAIADLTVGDVMVPRSQMVSLPVESDLQTITKQMVESGHSRFPVHGENKDEVLGILLAKDLLRGVSANHTITNVHELLRPVGMIPESKKLNVLLKEFRLSHNHMAIVVDEYGGVAGLVTIEDILEQIVGDID	soluble
MAHHHHHHMEYAQKSARLPRSAEEKEQWKRVIVILEHCPLQTIQTDRGFELLSDRHRSYHARHNQDPADWRPDVVHQCLLHLQDSPLNRAGMLEVFLRTKKQVCIAVDPRLRVPRNVRLFEKMMVSLLFKLKVRASTGYLSLLRVVGNPITDHIPAGTRLYRVEKDGDLIDPFTFCASCGYAADVLDAQRTDRKISLARRRLTSSTSGTLEETTAEAGTEEFAKAQRKAAERRQFQPFAFIIGGMSRGDVSVDYARPGEVSSIRLGDRGMSAAAVISTLLHGFEEEWLREDNEAC	soluble

---

experiment: soluble on expression in E. coli; label from the status in PepcDB or PDB records
EXPERIMENTAL READOUT: soluble on expression in E. coli

Sample records with soluble on expression in E. coli:
CONSTRUCT SEQUENCE	ENDPOINT RESULT
MEIYLVFVDAASNSNKFWTAKVEQNQLTVQWDRVGYKAQTKVHQFTSQAQAANKYNNLVFEKKAKGYQESQPQIESCGVVDIRRAMQLLNGLRSYVTNRNFNADYINLLNQYLKIIPTPLGMQLEPYRIFTSVADVDHQRELLSSLIPATPVAVTQAKQMPESQEKIVSLRGIHKNLWRHFLEHHHHHH	not soluble
DCSPLSLLFGHSDAVVQALYSNNPVLHCLNSALAQTAKALAGTRRDLRVLEVGAGTGATTRHLLPMLEEHLSEYRFTDVSNLFLTQAQEHFAAWPQLTCSMLDVNQPVDFSQHPAQGYDLVVAVNVMHDAAHVTRSLKRLHRLLRSGGHLLLLEATERDSALQLASIGFIEGLSNFEDERSEDDKAMLDLPRWRTAVQASGFSWVMNWPQQADDSM	not soluble
SNAMNFFTSPFSGIPLDQQVTNPNIIVGKHSYYSGYYHGHSFDDCVRYLHPERDDVDKLVIGSFCSIGSGAVFMMAGNQGHRSDWISTFPFFYQDNDNFADARDGFTRSGDTIIGHDVWIGTEAMIMPGVKIGHGAIIASRSVVTKDVAPYEVVGSNPAKHIKFRFSDVEIAMLLEMAWWNWPESWLKESMQSLCSSDIEGLYLNWQSKART	soluble
MSLSGKDLGRAIEQAINKKIASGSVKSKAEVARHFKVQPPSIYDWIKKGSISKDKLPELWRFFSDVVGPEHWGLNEYPIPTPTNSDTKSELLDINNLYQAASDEIRAIVAFLLSGNATEPDWVDHDVRAYIAAMEMKVGKYLKALESERKSQNITKTGTEGHHHHHH	soluble
MGSDKIHHHHHHMTNIGETIHQIRLSKGLTQQEVYSGIISRSFASRFESGANDIGASKLFAILDNLAISADELRFIHQNYQPSAYDQALWTIRHAYETLNFPALATWIREHRHSPHAYEQLIASYASILMLSYDHRSIGITTTTQPAFDHLRQAKTWTLQELKLVPVLIPIIASIDGLAALTPLTTRMAANCASYQTAWGDPFHVSNDLLDFYGSLFQTKLNFHDFQSAQNLKTKFTAIDSHQLNWDGRLSQQFWLGIWNLYFGDWQIGNQLLDEVSVLETHHHPRIDNTLFAIRNVRTKQAQTYRQSHQSHKHL	not soluble

Exercise: soluble on expression in E. coli for `MTSRDQGINSELSNRTIQFKEKIHNGIHTEYITDQKHSNNKDREKKYRDGDKINGPQAHSLDITNERRFADNRTMFTQHIEKQRNVNTLNQNDINNSANNANVRENELTYQFQRWGQNHTVRILESSEGIRLKPSDTLVSDRLHEAQHNDVTAQRWVLTEQDERQGQRHQPHEEQENEGKFENDQKDES` ?
Key: soluble

Exercise: soluble on expression in E. coli for `GERRIPESRILRREVVEATSAVAAALQIPARAPVIEMTRVRLIDGAPMLAEEIWLPYDRFAAFSRLELDSIGDLLYPVYEAHCNQIVASATETLTVEAIGPAHARLLRIEPGTPAVVIERLAYGYDRRPLEWRRSRGPASEFIYQAEIR` ?
Key: not soluble

---

assay: soluble on expression in E. coli; label from the status in PepcDB or PDB records
EXPERIMENTAL READOUT: soluble on expression in E. coli

Sample records with soluble on expression in E. coli:
CONSTRUCT SEQUENCE	soluble on expression in E. coli
MKIHPLSDVQAKQIGQGTSIWQYVVVLPGAVIGSDCNICSHCFIENAVVIGDRVTIKCGVQIWDGLRVEDDVFIGPNVTFTNDLFPRSKQHPKEFAKTVIQKGASIGANATILAGSTIGRNAMVGAGAVVTKSVPPNAIVVGNPARITGYVSTIPAQQKHSEIEVGENIGTVGQSAIPGVQFVRLPIIPDLRGSLSFAEFGQYLPFIPKRYFLVFDVQSREVRGEHAHKELHQFLVCVKGACSVMVDDGNCREEYILNTPGAALHIPPLVWGVQYKYSPDAVLMVLASDVYKPEDYIRDYDQFIALVKKLEHHHHHH	not soluble
QLPCNLSPLNWVGMQHIDLPTVIDTANQTVNTKVDVYVNLPKSSVKGIHMSRLYHLINHLSVLNTMSIKSVLKQMIDSHQDCGTTAAKIVFKFDLLLKRDAIVSTALSGWKSYPVIIEASIINELFNIEYKLDISYSSTCPCSAALSRQIIKNGFKADFSSQNLIPSADIEAWLEQYATLATPHSQRSIATVVVQPFDYAHDINFVDLIDSIENTLKTPTQTAVKRADEQAFAKLNGENLMFVEDAARRLKMLLDQKYKFWSAQVVHQESLHPHDAIAVAISS	not soluble
EISGFGQCLVWVQCSFPNCGKWRRLCGNIDPSVLPDNWSCDQNTDVQYNRCDIPEETWTGLE	soluble
MQKQKSFDKQTTKGKLYLVPTPIGNLEDMSIRCLNILKEATVIASEDTRNTQKLLNHFEITTPQISLHEHNYKERIPQLITRLLNGETIAQVSDAGMPSISDPGHELVTACLEEELAVIALPGPTAGMTALIASGLLPQPFTFYGFLPRKKKEQKDVLSALKEERPTQIFYESPYRIAKTVATFAEVYGQERPAVICRELTKLHEEYLRGTLGELTEYLAENTLKGECCLLVSGFTGEKETIAAMPAISLKEHVQVLMEEEGRSSKEAIKEVAKLRNVKKQEVYKEYHSI	not soluble
MGSDKIHHHHHHMKFSIDRDALLKPLQLVSGAVERRHNLPILANLLVEVSGHSLKMTGTDLEVELVGEATVHGDVQEGRTTVPAKKLLDIVKSLPEQTEIKVEQQENKWLLRCGRSRFSLATLPAEEYPNVEAFRPDIEFTLKQGTLKSLIDSTQFSMANQDVRYYLNGLLIETEGNVLRAVATDGHRLALSHRMIEASLPEKQVIVPRKGVVELSRLLDAEDQDITLAIGESAIRATTATAVFTSKLVDGRFPDYRRVLPKGGDKIVIASRNQLKQALLRASILSNEKFRGVRILLEDGLLKITANNPEQEEAEEIIDVDYNSTTLEIGFNVSYLLDVLNSLRSDEVRVTLIDSNSSALIENHVEEDSMYVVMPMRL	not soluble

Exercise: soluble on expression in E. coli for `MSLKRAIIIGATSGIGKEVAQRLLSEGWQIGIAGRRQSALEEFRQIAPEQIKIQSLDVTQEYSAGKLDALIHQLGGMDLFLLSSGIGFQNMELNMEIELNTARTNVEGFTRMVDTAFSYFRNNGGGHLAVISSIAGTKGLGVAPAYSATKRFQNTYIDALEQLSHLQKLDIHFTDIRPGFVATDLLNDGKHYPMLMKTDQVGRDIVRALHRKEGHHHHHH` ?
Key: not soluble

Exercise: soluble on expression in E. coli for `MKTMRKILEIDEERCNGCGLCVLDCAEGAIAIVDGKAKIVSDSFCDGLGACIGSCPQDALHIIEREAVPFDEEAAMEHVRSQGGTPEANHGHGHGAGTPHRHGQSAEHGGHGRIPGHGGCPGAAMRRFDSAESPAFAVAEGTVKGPGHWPLKIRLVPPTAPFLKGADVLVAADCAAAASPIFHSHFAAGKVVLIGCPKFDDTEAYAERLADILRVSGIASLTVLRMEVPCCRGLSAAAEKARVLSGTSLVLKEVIMTCAGGPAAPAPLSSL` ?
Key: soluble

---

experiment: soluble on expression in E. coli; label from the status in PepcDB or PDB records
EXPERIMENTAL READOUT: soluble on expression in E. coli

CONSTRUCT SEQUENCE	EXPERIMENTAL READOUT	ENDPOINT RESULT
MGEIQVVAFRLGDEEFCLEISKVREIKEMMPITRVPNAPDFVEGVINLRGQITTVINLKKLLGYYDDGDLSNKKIIIAEVNGEIVGVIVDSVSDVITLTEDQIEQPPKTLASRVDMKAIKGIAKINNGERLLIMLDLDKLIGESF	soluble on expression in E. coli	soluble
MAFDISAQDPFSILIAGVDSREDTHAGRSDTLIVLTVNPKEESIKMLSIPRDTRTEIVGRGTDDKINHAYAFGGAQMTIDTVENFLDIPIDHYVSINMDGFTQLVDALGGVSVENSFAFSQNGYQFEEGEIFLETGDEALAYARMRKQDSRGDFGRNDRQRQIVEAVIKQSAQFSSITKAGAILDAVGESVRTDLQLDGMWELQSNYRGAAKNIEQLEITGEGTRINNIYYLIIPQEEIARVQGELKSHLELSLEHHHHHH	soluble on expression in E. coli	soluble
